Details: pH 0
observation type: Solubility, solution at pH 0 (H2SO4 1M)
Give the number; M is assumed, so skip it.

Input line: Requested read-out: Solubility, solution at pH 0 (H2SO4 1M). Entry: O=C1c2ccccc2C(=O)c2c(OCCCCS(=O)(=O)[O-])ccc(O)c21.[Na+]
Output line: 0.37

Input line: Similarly, O=C(O)CCCOc1ccc(OCCCC(=O)O)c2c1C(=O)c1ccccc1C2=O ?
Output line: 0.30

Input line: Similarly, O=C1c2ccccc2C(=O)c2c(OCCCS(=O)(=O)O)ccc(OCCCS(=O)(=O)O)c21 ?
Output line: 0.73

Input line: Similarly, O=C1c2ccccc2C(=O)c2c(OCCCCS(=O)(=O)O)ccc(OCCCCS(=O)(=O)O)c21 ?
Output line: 0.91

Input line: Similarly, O=C1c2ccccc2C(=O)c2c(OCCCS(=O)(=O)[O-])ccc(OCCCS(=O)(=O)[O-])c21.[Na+].[Na+] ?
Output line: 0.15

Input line: Similarly, O=C(O)CCCCOc1ccc(OCCCCC(=O)O)c2c1C(=O)c1ccccc1C2=O ?
Output line: 0.00

Input line: Similarly, O=C1c2ccccc2C(=O)c2c(OCCCS(=O)(=O)O)ccc(O)c21 ?
Output line: 0.31

* * *

Assay: Solubility in aqueous solution at various pH by shake-flask method
Conditions: unbuffered aqueous KCl 1M solution, saline or isotonic, thermodynamic from solid
observation type: solubility (mM)
Give the number; mM is assumed, so skip it.

Input line: Requested read-out: solubility. Entry: O=C1c2ccccc2C(=O)c2c(OCCCS(=O)(=O)O)ccc(O)c21
Output line: 320

* * *

Test: Cyclic voltammetry / linear sweep voltammetry, electrochemical parameters
Format: physicochemical
Details: pH 14 (KOH 1 M), 100 mV/s, third cycle
observation type: Peak-to-peak separation ΔEp
Include the unit after the number when you answer.

Input line: Requested read-out: Peak-to-peak separation ΔEp. Entry: O=C1c2ccccc2C(=O)c2c(OCCCCS(=O)(=O)O)ccc(O)c21
Output line: 39 mV

Input line: Similarly, O=C1c2ccccc2C(=O)c2c(OCCCS(=O)(=O)O)ccc(OCCCS(=O)(=O)O)c21 ?
Output line: 40 mV

Input line: Similarly, O=C1c2ccccc2C(=O)c2c(OCCCS(=O)(=O)O)ccc(O)c21 ?
Output line: 40 mV

* * *

Assay: Solubility in aqueous solution at various pH by shake-flask method
Details: aqueous KOH 1M solution, pH 14, aqueous buffer, thermodynamic from solid
observation type: solubility (mM)
Give the number; mM is assumed, so skip it.

Input line: Requested read-out: solubility. Entry: O=C(O)CCCOc1ccc(O)c2c1C(=O)c1ccccc1C2=O
Output line: 530

* * *

Give measured Stability in days (−20%) for each item. Keep answers brief.
Assay: Cycling tests of redox flow battery cells in constant power cycling mode
Details: extrapolated from 5 days; flowrate 0.5 mL/min/cm^2; negolyte 120/120/40/370 mL
Counter-ions that a name gives are not always drawn.
Give the number; days is assumed, so skip it.

Input line: Requested read-out: Stability in days (−20%). Entry: O=C(O)CCCOc1ccc(O)c2c1C(=O)c1ccccc1C2=O
Output line: 10942.1

Input line: Similarly, O=C1c2ccccc2C(=O)c2c1cc(S(=O)(=O)O)c(O)c2O [ARS, sodium salt] ?
Output line: 3.5

Input line: Similarly, O=C(O)CN(CC(=O)O)Cc1cc2c(c(O)c1O)C(=O)c1ccccc1C2=O [Complexone] ?
Output line: 3.3

Input line: Similarly, O=C1c2ccc(S(=O)(=O)O)cc2C(=O)c2cc(S(=O)(=O)O)ccc21 [AQ-2,7-DS, disodium salt] ?
Output line: 0.0

Ref: patent US12438175B2
